// data source = the supplement of paper PMC10567573

Kindly state protein stability index for each of the entries shown.
B1: CDC25A (parent)
chain: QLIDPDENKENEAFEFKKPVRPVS

variants of: B1; assay: protein stability index of a GFP-peptide fusion (GPS, HEK-293T) (PSI 1-6); higher = more stable; details: c terminus: a fixed tail appended;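 also: lentivirally expressed fusions sorted by FACS into six bins by GFP to DsRed ratio, PSI derived from sequencing read proportions per bin multiplied by bin number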
One number for each entry.

Check out these entries, answers already filled in.
(Q) Give its protein stability index value. Item: E7C
(A) 4

(Q) Give its protein stability index value. Item: E10L
(A) 3.97

(Q) Give its protein stability index value. Item: A13T
(A) 3.9

(Q) Give its protein stability index value. Item: I3V
(A) 4.05

(Q) Give its protein stability index value. Item: A13Y
(A) 3.99

(Q) Give its protein stability index value. Item: N11I
(A) 4.53

(Q) Give its protein stability index value. Item: K9L
(A) 3.51

(Q) Give its protein stability index value. Item: N11D
(A) 4.68

Count: 5. Required value per item: protein stability index.
1. L2E
2. K17I
3. P19H
4. Q1I
5. P5Q

(A)
1: 5.02; 2: 3.54; 3: 3.95; 4: 3.39; 5: 3.87
